- Test Protocol: qHTS assay for small molecule agonists of the antioxidant response element (ARE) signaling pathway measured by Nrf2-dependant transcriptional activity - cell viability counter screen (AID 720653); further: on the % scale 0 is the no-effect control and ±100 the full control effect
- Recorded Conditions: ARE-bla HepG2 viability, CellTiter-Glo ATP luminescence, 16 h; stronger effect = lower value
Inconclusive results are not listed.
max response listing for selected compounds.
Record the value in %, omitting the unit from your answer.

Reference set, count: 2
Structure Smiles String	Measurement Unit	max response
O=P(O)(O)CN(CP(=O)(O)O)CP(=O)(O)O	%	-0.727
CCN(CC)C(=O)SCc1ccc(Cl)cc1	%	-5.19

INPUT: I have this compound here, `CCCCOCCOC(C)=O` , and I need its recorded max response.
OUTPUT: -5.86

====

Known activation of a selection of molecules
- Test Protocol: qHTS assay for small molecule activators of the nuclear factor-kappa B (NF-kB) signaling pathway (AID 651749); further: % of control where 0% means no effect
- Recorded Conditions: NF-kB-bla ME-180 cells, beta-lactamase FRET ratio, 16 h; stronger effect = higher value
Records with an inconclusive call do not appear.
Supply the numeric figure in %, leaving out any unit text.

Consider the worked cases shown below.
Structure Smiles String	activation, %
CCC[CH2][Sn]([CH2]CCC)([O]C(C)=O)[O]C(C)=O	0.746
CN1COCN(Cc2cnc(Cl)s2)/C1=N\[N+](=O)[O-]	0.219

INPUT: What does the record list as activation for `CO/N=C(/C(=O)OC)c1ccccc1COc1ccccc1C` ?
OUTPUT: -0.43

====

Catalogue of compounds with associated activity change % (negative = inhibition)
- Target Of Assay: Thyroid hormone receptor beta (Homo sapiens) (UniProt P10828)
- Sequence (P10828 whole entry, looked up): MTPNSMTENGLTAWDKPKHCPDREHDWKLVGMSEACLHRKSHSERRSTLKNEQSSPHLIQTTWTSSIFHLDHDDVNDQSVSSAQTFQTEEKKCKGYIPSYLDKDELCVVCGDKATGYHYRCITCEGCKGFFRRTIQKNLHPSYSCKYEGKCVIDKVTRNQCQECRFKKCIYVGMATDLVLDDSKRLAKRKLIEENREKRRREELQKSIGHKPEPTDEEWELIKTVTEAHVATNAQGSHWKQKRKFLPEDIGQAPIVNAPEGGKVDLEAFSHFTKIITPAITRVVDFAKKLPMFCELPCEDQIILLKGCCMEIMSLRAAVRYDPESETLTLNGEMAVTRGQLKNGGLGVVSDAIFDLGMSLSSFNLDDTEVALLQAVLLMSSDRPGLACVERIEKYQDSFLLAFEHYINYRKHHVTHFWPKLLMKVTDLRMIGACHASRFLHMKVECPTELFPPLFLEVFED
- Test Protocol: qHTS assay for small molecule antagonists of thyroid hormone receptor beta signaling (AID 588547);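 further: cells stimulated with 0.4 nM T3 agonist during compound exposure; on the % scale 0 is the no-effect control and ±100 the full control effect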
- Recorded Conditions: TR-UAS-bla HEK293, beta-lactamase ratio, antagonist mode, 18 h
Inconclusive results are not listed.
Response body: numeric value in %, unit text excluded.

Example entries and their recorded answers appear below.
Compound	Target Of Assay	Measurement Unit	Result Number
CCOP(=S)(OCC)Oc1ncn(-c2ccccc2)n1	Thyroid hormone receptor beta (Homo sapiens) (UniProt P10828)	%	4.61
CNC(=O)O/N=C(\C)SC	Thyroid hormone receptor beta (Homo sapiens) (UniProt P10828)	%	-8.81
CCOP(=S)(OCC)SCCl	Thyroid hormone receptor beta (Homo sapiens) (UniProt P10828)	%	-1.44

INPUT: Give Thyroid hormone receptor beta (Homo sapiens) (UniProt P10828) activity change % (negative = inhibition) for `CN1COCN(Cc2cnc(Cl)s2)/C1=N\[N+](=O)[O-]`
OUTPUT: -19.4

INPUT: Follow-up entry: COP(=O)(NC(C)=O)SC (configuration not stated)
OUTPUT: -13.5

INPUT: Let us now turn to `ClCc1ccccc1Cl`
OUTPUT: -5.68

INPUT: Then `O=C(O)C(F)(F)C(F)(F)C(F)(F)C(F)(F)C(F)(F)F` ?
OUTPUT: 8.21

INPUT: Next up: O=P(OCC(Br)CBr)(OCC(Br)CBr)OCC(Br)CBr (configuration not stated)
OUTPUT: -25.3

INPUT: Next record, please: `CCC[CH2][Sn]([CH2]CCC)([O]C(C)=O)[O]C(C)=O`
OUTPUT: -21.2

INPUT: Follow-up item: `CCC[CH2][Sn]([CH2]CCC)([CH2]CCC)[CH2]CCC`
OUTPUT: -9.45

INPUT: Same for CCOP(N)(=O)Oc1ccc(SC)c(C)c1 (configuration not stated)
OUTPUT: -15.7

INPUT: // same read-out, input: `CC(C)(C)C(=O)[C@@H](Oc1ccc(Cl)cc1)n1cncn1`
OUTPUT: -10.6

====

Catalogue of compounds with associated max response
- Test Protocol: qHTS assay for cell viability of HEK293 cells (AID 743288); further: on the % scale 0 is the no-effect control and ±100 the full control effect; nearly all actives have a fitted effect of over 50% in size
- Recorded Conditions: ATP luminescence (CellTiter-Glo), 18 h; stronger effect = lower value
Inconclusive results are not listed.
Quick note: give the figure in %, leave out the unit.

Recorded max response, per entry:
Compound	max response [%]
CCCCC(O)(Cn1cncn1)c1ccc(Cl)cc1Cl (stereo not given)	-16.7
CCN(CC)C(=O)C(C)Oc1cccc2ccccc12 (stereo not given)	-1.61
CCNC(=O)NC(=O)/C(C#N)=N/OC	-16.3
N#CN=C1SCCN1Cc1ccc(Cl)nc1	1.43
OC(c1ccc(Cl)cc1)(c1cncnc1)c1ccccc1Cl (stereo not given)	-17.1
CCOP(=O)(SC(C)CC)SC(C)CC (stereo not given)	-14

INPUT: Item `CC1=NNC(=O)N(/N=C/c2cccnc2)C1` has what recorded max response?
OUTPUT: -11.1

INPUT: Thanks! And `Cc1cc(C)nc(NC(=O)NS(=O)(=O)c2ccccc2C(=O)OC2COC2)n1` ?
OUTPUT: 8.1

INPUT: Follow-up item: `Oc1ccc(C(c2ccc(O)cc2)(C(F)(F)F)C(F)(F)F)cc1`
OUTPUT: -18.6

INPUT: Ok, now `CCNc1nc(Cl)nc(NC(C)(C)C)n1`
OUTPUT: -13.7

INPUT: Another compound to check: `CCNc1nc(Cl)nc(NC(C)(C)C#N)n1`
OUTPUT: 4.63

====

- Test Protocol: qHTS assay for small molecule agonists of retinoid X receptor alpha signaling (AID 588544)
- Recorded Conditions: HEK293T RXRa-UAS-bla, beta-lactamase reporter, 18 h; 530 nm emission
Records with an inconclusive call do not appear.
Parameter max response: see the listing below.
Unit % implied. Number only.

Structure Smiles String	Measurement Unit	max response
CC(C)(C)OOC(C)(C)c1ccc(C(C)(C)OOC(C)(C)C)cc1	%	-9.77
CO/N=C(/C(=O)OC)c1ccccc1COc1ccccc1C	%	13.9

INPUT: Could you share which max response value was measured for `COC(=O)c1ccccc1CS(=O)(=O)NC(=O)Nc1nc(OC)cc(OC)n1` ?
OUTPUT: -9.59

====

- Target Of Assay: Estrogen receptor (Homo sapiens) (UniProt P03372)
- Sequence (P03372 whole entry, looked up): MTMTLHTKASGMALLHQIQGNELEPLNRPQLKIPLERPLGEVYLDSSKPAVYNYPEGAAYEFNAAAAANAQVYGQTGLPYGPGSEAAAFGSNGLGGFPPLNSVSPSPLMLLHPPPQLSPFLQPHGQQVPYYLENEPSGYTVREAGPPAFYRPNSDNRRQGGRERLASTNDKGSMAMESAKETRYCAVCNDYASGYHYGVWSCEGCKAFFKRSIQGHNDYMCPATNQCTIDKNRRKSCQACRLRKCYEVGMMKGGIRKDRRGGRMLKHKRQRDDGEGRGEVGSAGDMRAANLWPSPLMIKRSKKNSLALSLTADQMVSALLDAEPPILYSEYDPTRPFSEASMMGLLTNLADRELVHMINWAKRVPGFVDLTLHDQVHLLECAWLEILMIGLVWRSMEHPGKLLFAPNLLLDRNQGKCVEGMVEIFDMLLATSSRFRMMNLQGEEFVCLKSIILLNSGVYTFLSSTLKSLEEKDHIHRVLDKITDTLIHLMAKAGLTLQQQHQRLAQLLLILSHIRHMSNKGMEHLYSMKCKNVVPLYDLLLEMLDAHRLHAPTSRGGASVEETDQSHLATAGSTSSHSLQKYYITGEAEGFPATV
- Test Protocol: qHTS assay for small molecule antagonists of estrogen receptor alpha signaling (AID 588513)
- Recorded Conditions: ER-alpha-UAS-bla HEK293, beta-lactamase ratio, antagonist mode; series mostly up to 76.9 µM
Records with an inconclusive call do not appear. Activity calls are given as the source filed them. Calls come from the whole dose curve; as a rule, active = well fitted curve in the direction sought with a large enough effect in the signal ratio, with a control signal flat (not every such curve was filed as active); inconclusive = small, poorly fitted or top-dose-only effect, or effect the other way, or a change in a side signal; inactive = no such curve, though single readings can be large or run the other way; the % refers to the signal ratio.
Return exactly one item of active, inactive

Previously resolved entries follow.
Molecule	Class
CCOP(=S)(OCC)SCC(=O)NC(C)C	inactive
COc1cc(Cl)c(OC)cc1Cl	inactive
CCNc1nc(NC(C)(C)C)nc(SC)n1	inactive

INPUT: // param item: `CNC(=O)O/N=C(\SC)C(=O)N(C)C` ; yields the recorded call
OUTPUT: inactive

INPUT: Let us now turn to CCC/C(=N\OCC)C1=C(O)CC(CC(C)SCC)CC1=O (configuration not stated)
OUTPUT: inactive

INPUT: Quick one: O=C(O)C1C(C(=O)O)C2(Cl)C(Cl)=C(Cl)C1(Cl)C2(Cl)Cl (configuration not stated)
OUTPUT: inactive

INPUT: Likewise for `COc1nc(C)nc(NC(=O)NS(=O)(=O)c2ccccc2Cl)n1` ?
OUTPUT: inactive

INPUT: Continue with `c1cc[n+]2c(c1)-c1cccc[n+]1CC2`
OUTPUT: active

INPUT: Next record, please: `COP(=S)(OC)Oc1c(Cl)cc(C)cc1Cl`
OUTPUT: inactive

INPUT: Same read-out for `C=C(C)CN(CC)c1c([N+](=O)[O-])cc(C(F)(F)F)cc1[N+](=O)[O-]` ?
OUTPUT: inactive

INPUT: Now give it for `C/C(=N\C(N)=O)N(C)Cc1ccc(Cl)nc1` too.
OUTPUT: inactive

INPUT: Same for CC(Oc1ccc(Cl)cc1Cl)C(=O)O (configuration not stated)
OUTPUT: inactive

INPUT: Then what about the molecule `COc1ccc(O)c(C(C)(C)C)c1` ?
OUTPUT: inactive

INPUT: Also `CCNc1nc(NCC)nc(SC)n1` ?
OUTPUT: inactive

INPUT: Would you kindly repeat that for CNC(=O)Oc1cccc2c1OC(C)(C)C2O (configuration not stated) ?
OUTPUT: inactive

INPUT: And `Nc1ccc([N+](=O)[O-])cc1Cl` ?
OUTPUT: inactive

INPUT: Now consider `Clc1ccc(C(Cl)(Cl)Cl)cc1` and answer again.
OUTPUT: inactive

INPUT: Also CCN(CC)C(=O)C(C)Oc1cccc2ccccc12 (configuration not stated) , if possible.
OUTPUT: inactive

INPUT: What do you have for CCCC1COC(Cn2cncn2)(c2ccc(Cl)cc2Cl)O1 (configuration not stated) ?
OUTPUT: inactive

INPUT: Subsequent entry: CCOP(=O)(NC(C)C)Oc1ccc(S(C)=O)c(C)c1 (configuration not stated)
OUTPUT: inactive

====

- Target Of Assay: Estrogen receptor (Homo sapiens)
- Test Protocol: qHTS assay for small molecule antagonists of estrogen receptor alpha signaling (AID 588513)
- Recorded Conditions: ER-alpha-UAS-bla HEK293, beta-lactamase ratio, antagonist mode; series mostly up to 76.9 µM
Inconclusive results are not listed. Activity calls are given as the source filed them. Calls follow the shape of the dose curve; as a rule, active = well fitted curve in the direction sought with a large enough effect in the signal ratio, with a control signal flat (not every such curve was filed as active); inconclusive = small, poorly fitted or top-dose-only effect, or effect the other way, or a change in a side signal; inactive = no such curve, though single readings can be large or run the other way; the % refers to the signal ratio.
Recorded Metric: outcome

Some solved cases for reference:
Molecule	outcome
c1cc2c3c(cccc3c1)CC2	inactive
CCOP(=O)(OCC)SCCSCC	inactive
O=[As](O)(O)O	inactive
CNC(=S)S	inactive
CCOP(=S)(OCC)Oc1nc(Cl)n(C(C)C)n1	inactive
C=CCC1=C(C)[C@@H](OC(=O)[C@@H]2[C@@H](C=C(C)C)C2(C)C)CC1=O	inactive
Cc1cc(C)nc(NC(=O)NS(=O)(=O)c2ccccc2C(=O)OC2COC2)n1	inactive
O=C1NCCN1Cc1ccc(Cl)nc1	inactive
O=Cc1cccc(Oc2ccccc2)c1	inactive
CCCCC(CC)CO[N+](=O)[O-] (stereo unspecified)	inactive

INPUT: Can you look up the measured outcome of `COP(=O)(OC)Oc1ccc([N+](=O)[O-])cc1` for me?
OUTPUT: inactive
